- System: T1, recombinant human MSLN (human, UniProt Q13421 296-580, limits assumed)
- T1 construct: It was fixed to an anti-Penta His (HIS1K) sensor, so a His tag is implied; also called recombinant MSLN; mesothelin
- T1 sequence (Q13421 other isoform, or with tags, fused parts or gaps limits assumed): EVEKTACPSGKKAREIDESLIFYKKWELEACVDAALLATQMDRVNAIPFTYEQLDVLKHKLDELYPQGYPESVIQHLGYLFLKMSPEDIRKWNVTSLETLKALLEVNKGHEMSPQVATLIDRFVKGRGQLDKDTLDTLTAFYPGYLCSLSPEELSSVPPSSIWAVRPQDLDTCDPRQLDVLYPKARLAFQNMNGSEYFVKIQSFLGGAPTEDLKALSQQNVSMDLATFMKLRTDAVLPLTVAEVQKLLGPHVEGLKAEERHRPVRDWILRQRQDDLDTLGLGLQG
- Assay Explanation: BLI (Octet), MSLN on anti-Penta His sensor, antibody 3.125-50 nM
Readout Kind: pKd
Lab note — pKd values are minus log10 of concentrations in M.

Look over these answered cases.
Binder	Assay Result
HMI323VL-1/HMI323VH-2 (antibody, human IgG1, kappa, V domains shown, also called humanized MI323 IgG1 (VL-1/VH-2)) VH: QVQLVQSGAEVKKPGSSVKVSCKASGYSFTSYFISWVRQAPGQGLEWMGGIFPGSGNANYAQKFQGRVTITADESTSTAYMELSSLRSEDTAVYYCARSGGYQYYFDYWGQGTLVTVSS VL: DIQMTQSPSSLSASVGDRVTITCRASQDVSTAVAWYQQKPGKAPKLLIYSASYRYPGVPSRFSGSGSGTDFTLTISSLQPEDFATYYCQQHYSTPWTFGGGTKLEIKR	9.56
HMI323VL-1/HMI323VH-3 IgG1 (antibody, V domains shown, also called humanized MI323 IgG1) VH: EVQLVQSGAEVKKPGTSVKVSCKASGYSFTSYFIQWVRQAPGQGLEWIGWIFPGSGNTKYSQKFQGRVTITRDTSTSTAYMELSSLRSEDTAVYYCARSGGYQYYFDYWGQGTLVTVSS VL: DIQMTQSPSSLSASVGDRVTITCRASQDVSTAVAWYQQKPGKAPKLLIYSASYRYPGVPSRFSGSGSGTDFTLTISSLQPEDFATYYCQQHYSTPWTFGGGTKLEIKR	10.49
mouse/human chimeric MI323 IgG1 (antibody, V domains shown, Control antibody; also called mouse human chimeric MI323 IgG1 antibody; MI323 antibody) VH: EVQLQQSGPELVKPGTSVKISCKASGYSFTSYFIQWVKQRPGQGLEWIGWIFPGSGNTKYNEMFKGKATLAADTSSSTAYMQLSSLTSEDSAVYFCARSGGYQYYFDYWGQGTSVTVSS VL: DIVMTQSHKFMSTSVGDRVSITCKASQDVSTAVAWYQQKPGQSPKLLIYSASYRYPGVPDRFTGSGSGTDFTFTISSVQAEDLALYYCQQHYSTPWTFGGGTKLEIKR	10.54

Proceeding to the next binder to report its pKd.
Reported pKd, binder HMI323VL-1/HMI323VH-1 (antibody, human IgG1, kappa, V domains shown, also called humanized MI323 IgG1 (VL-1/VH-1)) VH: QVQLVQSGAEVKKPGASVKVSCKASGYSFTSYFMHWVRQAPGQRLEWMGWIFPGNGNTKYSQKFQGRVTITRDTSASTAYMELSSLRSEDTAVYYCARSGGYQYYFDYWGQGTLVTVSS VL: DIQMTQSPSSLSASVGDRVTITCRASQDVSTAVAWYQQKPGKAPKLLIYSASYRYPGVPSRFSGSGSGTDFTLTISSLQPEDFATYYCQQHYSTPWTFGGGTKLEIKR : ____
9.86
